- System: LL/2 lung cancer tumor endothelial cells
- MEASUREMENT_DESCRIPTION: Lung LL2 ex vivo model of tumor angiogenesis
- Format: cell-based, mouse
- CONDITION_SET: Mus musculus, Endothelial cell, 48 h, read-out: Cell death
Label true (1) when cytotoxicity at 40 µM is at or above 20%; anything below gets false (0).

stdin: Quick check, cytotoxicity at 40 µM >= 20%? CCCCCCCOc1ccc(S(=O)(=O)c2cnc3ccc([S+](C)[O-])cc3c2N2CCCN(C)CC2)cc1 (stereo not drawn)
stdout: true (1)

stdin: Please check the record `COc1ccc(S(=O)(=O)c2cnc3cc(OC)c(OC)cc3c2N2C[C@@H]3C[C@H]2CN3C)cc1` and state if its cytotoxicity at 40 µM is at or above 20%.
stdout: true (1)

stdin: Could you tell me if the measured cytotoxicity at 40 µM of `CCCCOc1ccc(S(=O)(=O)c2cnc3ccc(SC)cc3c2N2CCCN(C3COC3)CC2)cc1` reaches 20% or more?
stdout: false (0)

stdin: Decide: cytotoxicity at 40 µM of `CCCCOc1ccc(S(=O)(=O)c2cnc3ccc(OC(F)(F)F)cc3c2N2CCCN(C)CC2)cc1` >= 20%?
stdout: true (1)

stdin: Exam item: decide whether the reported cytotoxicity at 40 µM for `CCCCOc1ccc(S(=O)(=O)c2cnc3ccc(SC)cc3c2N2CCCN(CC3(O)CCCC3)CC2)cc1` is at least 20%.
stdout: false (0)

stdin: # bool: cytotoxicity at 40 µM of `CCCCOc1ccc(S(=O)(=O)c2cnc3ccc(SC)cc3c2N2CCCN(C3CCSCC3)CC2)cc1` >= 20%
stdout: false (0)

stdin: Please tell me: is the molecule `CCCCOc1ccc(S(=O)(=O)c2cnc3ccc(C(=O)OCC)cc3c2N2CCN(c3ccc(F)cc3)CC2)cc1` at or over 20% in terms of cytotoxicity at 40 µM?
stdout: true (1)

###

- System: LL/2 lung cancer tumor endothelial cells
- MEASUREMENT_DESCRIPTION: Lung LL2 ex vivo model of tumor angiogenesis
- Format: cell-based, mouse
- CONDITION_SET: Mus musculus, Endothelial cell, 48 h, read-out: Cell death
MEASURE_NAME: cytotoxicity at 20 µM (%)
Expressed in %, but write only the number.

// cytotoxicity at 20 µM lookup, compound = CCCCCCCCCCCCOc1ccc(S(=O)(=O)c2cnc3ccc([S+](C)[O-])cc3c2N2CCC(N3CCC(N4CCCC(O)C4)CC3)CC2)cc1F (stereo not shown) , result: 5

According to the records, this compound CCCCCCCOc1ccc(S(=O)(=O)c2cnc3ccc([S+](C)[O-])cc3c2N2CCC(N3CCC(N4CCCCC4)CC3)CC2)cc1 (stereo not shown) displays cytotoxicity at 20 µM of 100

response.value for `COc1ccc(S(=O)(=O)c2cnc3ccc(OC(F)(F)F)cc3c2-n2cncn2)cc1` (field: cytotoxicity at 20 µM) = 100

The reported value for `CCc1ccc(S(=O)(=O)c2cnc3ccc(OC(F)(F)F)cc3c2-n2ccnc2)cc1` in terms of cytotoxicity at 20 µM is 100

###

- Tested on: LL/2 lung cancer tumor endothelial cells
- MEASUREMENT_DESCRIPTION: Lung LL2 ex vivo model of tumor angiogenesis
- Format: cell-based, mouse
- CONDITION_SET: 10 μm; drug treatment for two days; ratio of red area to total endothelial cell area
Label Y when Cell death >= 20%; otherwise N.

stdin: Exam item: decide whether the reported Cell death for CCCCCCCOc1ccc(S(=O)(=O)c2cnc3ccc([S+](C)[O-])cc3c2N2CCN(C3CCN(Cc4ccccc4)C3)CC2)cc1 (stereo not shown) [Compound 278] is at least 20%.
stdout: Y

stdin: Confirm if Cell death reported for the compound CCCCOc1ccc(S(=O)(=O)c2cnc3ccc(C(=O)OCC)cc3c2-n2cnnn2)cc1 [Compound 186] is 20% or above.
stdout: Y

stdin: Is reported Cell death greater than or equal to 20% here: CCCCCCCCCCOc1ccc(S(=O)(=O)c2cnc3ccc([S+](C)[O-])cc3c2N2CCC(N3CCC(N4CCN(C)CC4)CC3)CC2)cc1 (stereo not shown) [Compound 285]
stdout: Y

stdin: Textbook exercise: given the entry CCCCCCCCCCOc1ccc(S(=O)(=O)c2cnc3ccc([S+](C)[O-])cc3c2N2CCCN(CCN3CCCCC3)CC2)cc1 (stereo not shown) [Compound 266] , state whether its Cell death is greater than or equal to 20%.
stdout: N

stdin: Is it the case that CCOC(=O)c1ccc2ncc(S(=O)(=O)c3ccc(OC)cc3)c(-n3ccnn3)c2c1 [Compound 184] has Cell death reaching or exceeding 20%?
stdout: N

stdin: Determine whether this compound has Cell death no lower than 20%: CCOC(=O)c1ccc2ncc(S(=O)(=O)c3ccc(OC)cc3)c(-n3cncn3)c2c1 [Compound 183]
stdout: Y
